assay: Drug level in BALB/c mouse plasma at 50 mg/kg, po after 4 hrs; format: ADME, organism-based; set-up: dose 50 mg/kg, route oral
attribute_measured: concentration at 4 h (µM)

Examples with their reported concentration at 4 h follow.
[
  {
    "entry_smiles": "NC1CCN(Cc2ccn3ncnc(Nc4ccc(OCc5cccnc5)c(Cl)c4)c23)CC1",
    "recorded_result": 7.5
  },
  {
    "entry_smiles": "Cc1cncc(COc2ccc(Nc3ncnn4ccc(CN5CCC(N)CC5)c34)cc2Cl)c1",
    "recorded_result": 1.8
  }
]

(1) NC1CCN(Cc2ccn3ncnc(Nc4ccc(OCc5cccc[n+]5[O-])c(Cl)c4)c23)CC1
(2) NC1CCN(Cc2ccn3ncnc(Nc4ccc5c(cnn5Cc5ccccn5)c4)c23)CC1
# return whichever of 1 and 2 has the smaller concentration at 4 h Pick one; state its label. 2

---

biological target: Epidermal growth factor receptor (Homo sapiens, UniProt P00533); test: Inhibition of human recombinant EGFR expressed in insect Sf9 cells
Sequence (P00533 whole entry): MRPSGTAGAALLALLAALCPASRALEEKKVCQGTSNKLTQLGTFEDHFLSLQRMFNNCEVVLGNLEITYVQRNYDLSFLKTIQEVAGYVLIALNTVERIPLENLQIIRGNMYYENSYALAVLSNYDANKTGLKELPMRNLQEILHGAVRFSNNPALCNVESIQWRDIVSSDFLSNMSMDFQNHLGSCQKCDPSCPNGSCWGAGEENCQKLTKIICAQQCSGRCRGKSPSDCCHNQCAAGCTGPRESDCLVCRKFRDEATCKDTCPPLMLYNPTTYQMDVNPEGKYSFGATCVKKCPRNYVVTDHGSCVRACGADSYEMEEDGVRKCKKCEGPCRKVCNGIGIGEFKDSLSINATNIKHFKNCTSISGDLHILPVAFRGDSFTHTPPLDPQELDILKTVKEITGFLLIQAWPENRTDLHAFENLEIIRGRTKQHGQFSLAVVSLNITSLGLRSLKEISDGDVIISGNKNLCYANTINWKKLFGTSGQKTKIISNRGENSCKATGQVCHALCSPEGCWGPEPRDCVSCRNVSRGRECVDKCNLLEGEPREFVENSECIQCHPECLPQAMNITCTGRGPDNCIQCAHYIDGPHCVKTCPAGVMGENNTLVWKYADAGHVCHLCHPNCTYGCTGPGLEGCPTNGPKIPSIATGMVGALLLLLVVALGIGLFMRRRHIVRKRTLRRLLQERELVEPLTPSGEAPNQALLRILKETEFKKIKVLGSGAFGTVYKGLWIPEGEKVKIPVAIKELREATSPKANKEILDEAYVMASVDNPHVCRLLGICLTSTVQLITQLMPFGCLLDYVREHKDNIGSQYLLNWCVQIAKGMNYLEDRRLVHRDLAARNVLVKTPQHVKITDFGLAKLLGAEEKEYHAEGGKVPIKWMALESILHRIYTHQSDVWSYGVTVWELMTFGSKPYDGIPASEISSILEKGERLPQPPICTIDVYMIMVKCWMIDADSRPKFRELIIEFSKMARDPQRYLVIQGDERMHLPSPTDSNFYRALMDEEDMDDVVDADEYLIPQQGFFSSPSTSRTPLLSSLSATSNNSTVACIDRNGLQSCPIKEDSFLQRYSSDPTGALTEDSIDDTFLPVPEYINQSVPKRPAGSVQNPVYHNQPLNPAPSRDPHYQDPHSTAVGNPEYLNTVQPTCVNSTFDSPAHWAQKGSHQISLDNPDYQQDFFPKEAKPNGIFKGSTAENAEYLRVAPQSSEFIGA
pIC50: −log10 of the molar value.
attribute_measured: pIC50

Examples with their reported pIC50 follow.
[
  {
    "entry_smiles": "NC1CCN(Cc2ccn3ncnc(Nc4ccc(OCc5cccc[n+]5[O-])c(Cl)c4)c23)CC1",
    "study_system": "Epidermal growth factor receptor (Homo sapiens, UniProt P00533)",
    "pIC50": 7.15
  },
  {
    "entry_smiles": "NC1CCN(Cc2ccn3ncnc(Nc4ccc(OCc5cccnc5)c(Cl)c4)c23)CC1",
    "study_system": "Epidermal growth factor receptor (Homo sapiens, UniProt P00533)",
    "pIC50": 6.82
  },
  {
    "entry_smiles": "Fc1cccc(Cn2ncc3cc(Nc4ncnn5ccc(CNC6CCNCC6)c45)ccc32)c1",
    "study_system": "Epidermal growth factor receptor (Homo sapiens, UniProt P00533)",
    "pIC50": 6.96
  },
  {
    "entry_smiles": "CN(C)C1CCN(Cc2ccn3ncnc(Nc4ccc5c(cnn5Cc5cccc(F)c5)c4)c23)CC1",
    "study_system": "Epidermal growth factor receptor (Homo sapiens, UniProt P00533)",
    "pIC50": 7.00
  }
]

(a) O=C(CO)NC1CCN(Cc2ccn3ncnc(Nc4ccc5c(cnn5Cc5cccc(F)c5)c4)c23)CC1
(b) CNC1CCN(Cc2ccn3ncnc(Nc4ccc5c(cnn5Cc5cccc(F)c5)c4)c23)CC1
# return whichever of a and b has the smaller pIC50 Pick one; state its label. a
(a: 6.96, b: 7.20)
